All values here come from PubChem BioAssay.

Examples of molecules with documented nuclei count follow.
# assay-remarks: reduction of polyQ htt aggregates in cells – imaging, exon1htt(103Q)mCFP cells, high-content imaging, primary screen (AID 483);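 also: compound exposure lasted 3 days before fixation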;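 as to nuclei count: percent of the per-plate median nuclei count of sample wells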
# run-conditions: exon1htt(103Q)mCFP cell line, aggregate imaging, at 2 µM; measured here: cell count, toxicity
Answer with a number only, understood to be in %.

Recorded nuclei count, per entry:
COc1ccc(CC(=O)Nc2ccc(-c3nnc(-c4ccc(C)cc4)o3)cc2)cc1 : 102
Cc1ccc(-c2nnnn2CS(=O)(=O)c2ccccc2)cc1 : 114
COC(=O)c1cc(-c2c(C)nn(-c3ccccc3)c2C)n[nH]1 : 111
CC(C(=O)c1ccccc1)n1cnc2ccccc2c1=O (stereo not drawn) : 93

Item CCc1nccn1S(=O)(=O)c1ccc(C)c(C)c1 has what recorded nuclei count?
94

Return reported nuclei count; argument: CCOCC(=O)Nc1ccc(S(=O)(=O)N2CCOCC2)cc1
89.1

Which nuclei count is reported for this molecule? CCC(=NC(C)c1ccccc1)c1c(O)n(C)c(=O)n(C)c1=O (stereo not drawn)
72.1

Look up nuclei count: O=C(c1csc2ccccc12)N1CCCCCC1
100

Entry COc1ccccc1OCCNC(=O)c1cccs1 : reported nuclei count = ?
97.7

Sample COC(=O)c1ccccc1NC(=O)CN1CCC(n2nnc3cc(F)ccc32)CC1 — what was its nuclei count?
103

Entry CSc1ncc(Cl)c(C(=O)Nc2ccc(S(=O)(=O)N3CCOCC3)cc2)n1 has what nuclei count?
101

Find the recorded nuclei count belonging to CCCCCOC(=O)CSc1nnc(-c2cc(OC)c(OC)c(OC)c2)o1 and report it.
116

What value of measured nuclei count is listed for CCOC(=O)c1c(COC(=O)c2ccco2)nc2ccccc2[n+]1[O-] ?
107

Given Cc1nc2ccccc2c(=O)n1NC(=O)Nc1ccccc1 , state its recorded nuclei count.
83.8

Which measured nuclei count value corresponds to O=C(CSc1nnnn1-c1ccccc1)Nc1ccc(Cl)cc1 ?
108

----------
# assay-remarks: TLR3 IRF3 reporter activation blockers – cell-based, poly I:C stimulus, luciferase, 10K MLSCN set, primary screen (AID 602277)
# run-conditions: HEK293-TLR3 RL24 IRF3 luciferase reporter, at 10 µM
Activity calls are given as the source filed them.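 The calls were made as follows: active = inhibition of the reporter signal at or above 50%; inactive = inhibition below 50%.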
Field 'call' accepts active, inactive

Before answering, review these 5 worked examples.
COc1ccccc1N1CCN(C(=O)C2CC=CCC2C(=O)O)CC1 (stereo unspecified) : inactive
CC1(C)CC(=O)c2cnc(NCc3ccco3)nc2C1 : inactive
CC(=O)Nc1ccc(-c2nn[nH]n2)cc1Cl : inactive
CC1CN(C(=O)CSc2ncnc3sccc23)CC(C)O1 (stereo unspecified) : inactive
O=C1c2ccccc2C(=O)N1CCN1CCCCC1 : inactive

Look up the recorded call for COc1ccc(NC(=O)CSc2nnc(-c3ccncc3)n2CC2CCCO2)c(OC)c1 (stereo unspecified) in this test.
inactive

Please let me know the test result on file for Cc1ccc(C2CC(c3ccc(C)cc3)n3nc(N)nc3N2)cc1 (stereo unspecified) .
inactive

Record lookup: outcome of this test for CC1CCN(S(=O)(=O)c2ccc(Br)s2)CC1 ?
inactive

Record request — test call for CCc1ccccc1NC(=O)CSc1nc2n[nH]c(C)c2c(=N)n1-c1ccc(OC)cc1
inactive

For COC(=O)CSc1nnc(CSc2nc(C)cc(C)n2)n1Cc1ccco1 , which call appears in the assay record?
inactive

Check the results log: what was the call for O=C(Nc1ccc2c(c1)nc1n2CCSC1)c1ccccc1 ?
inactive

How was COC(=O)C1=C(C)N(Cc2ccco2)C(=O)C1 classified in this test?
inactive

Entry CN(C)S(=O)(=O)N1CCN(S(=O)(=O)c2ccc(F)cc2)CC1 : call = ?
inactive

Entry O=c1c2ccccc2nc(SCc2cn3ccsc3n2)n1-c1ccc(F)cc1 : call = ?
inactive

Status in this test for Cc1nnc(SCc2cccc(Oc3ccccc3)c2)n1N ?
active

Recorded test outcome, item CCCCSc1nc(CCC)cc(=O)[nH]1
inactive

How did this test come out for COc1ccc(Br)cc1S(=O)(=O)N1CCOCC1 ?
inactive

Any idea what this test logged for Cc1cc(C(=O)COC(=O)c2n[nH]c3ccccc23)c(C)n1C ?
inactive

Lab log entry: C#CCSc1nnc(-c2ccccc2)c(=O)[nH]1 — outcome as called in the assay?
inactive

So what was the verdict on CC(=O)c1cccc(NC(=O)CCNS(=O)(=O)c2cccc3nsnc23)c1 in this test?
inactive

Please state the recorded outcome for this compound: COc1cccc(CN2C(=O)C3(C(C#N)=C(N)OC4=C3C(=O)CCC4)c3ccccc32)c1 (stereo unspecified)
inactive

For CCCC1CCC(C(=O)Nn2c(C)nc3ccccc3c2=O)CC1 (stereo unspecified) , which call appears in the assay record?
inactive

Kindly provide the recorded test outcome for the following compound: Oc1cccc(Nc2nc(NCC3CCCO3)c3ccccc3n2)c1 (stereo unspecified)
inactive

----------
Below, each entry is listed with its recorded inhibition of aggregation.
# assay-remarks: reduction of polyQ htt aggregates in cells – imaging, exon1htt(103Q)mCFP cells, high-content imaging, primary screen (AID 483);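 also: compound exposure lasted 3 days before fixation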
# run-conditions: exon1htt(103Q)mCFP cell line, aggregate imaging, at 2 µM; stronger effect = higher value
State the answer as a number, implicitly in %.

The following compounds have reported results that may help.
Nc1nc(-c2ccccc2)cc(C(F)(F)F)n1 : 1.3
CN(CC(=O)N1CCN(c2ccccn2)CC1)S(=O)(=O)c1ccc2ccccc2c1 : 1.9
O=C(Nc1ccc2c(c1)OCO2)N1CCN(c2ncccn2)CC1 : -5.6
COCCCn1c2nc3ccccc3nc2c2c(=O)n(-c3ccccc3OC)cnc21 : -5.4

What inhibition of aggregation value was documented for this compound, COc1ccc(NC(=O)CSc2nc(C)cc(C(F)(F)F)n2)cc1 ?
8.8

Fill blank: measured inhibition of aggregation of the compound Cc1ccc(S(=O)(=O)N2CCN(C(=O)CN3CCOCC3)C2C(C)C)cc1 (stereo unspecified) is ____.
-6.9

----------
Quick reference for inhibition among some compounds
# assay-remarks: TLR3 IRF3 reporter activation blockers – cell-based, poly I:C stimulus, luciferase, 10K MLSCN set, primary screen (AID 602277)
# run-conditions: HEK293-TLR3 RL24 IRF3 luciferase reporter, at 10 µM, stronger effect = higher value
Number in %, nothing else.

CC(=O)Nc1nc(-c2ccccc2)nc(C)c1C(C)=O : 2.89
CCCc1cc(-c2n[nH]c(C)c2-c2ccc(C(=O)OCC)o2)c(O)cc1O : 17.9
COC(=O)c1cccc(NC(=O)CN2CCN(Cc3ccccc3)CC2)c1 : 14.9

Could you share which inhibition value was measured for CC(=O)Nc1cccc(NC(=O)CSc2nn3c(=O)c(C)nnc3s2)c1 ?
20.4

Fill in: inhibition of COc1cc(C2c3c(n[nH]c3C)C(=O)N2c2ccc(C)cc2)ccc1O (stereo unspecified) is ___
-2.36

Form field: reported inhibition of Cc1ccc(Cn2c(=O)c3ccccc3n3c(CCC(=O)O)nnc23)cc1
12.6

Give the measured inhibition of CC(=O)c1c(OC(=O)c2ccco2)c2ccccc2n1C .
1.24

Please report the recorded inhibition for CCOC(=O)N1CCN(Cc2nc3c(c(=O)[nH]c(=O)n3C)n2Cc2cc(C)ccc2C)CC1 .
27.4

----------
# assay-remarks: inhibitors of larval lipid processing in zebrafish, primary screen, whole organism, PED6 fluorescence, gall bladder and intestine (AID 686);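 also: larvae 5 to 7 days old with five fish per well; signal comes from phospholipase A2 cleavage of quenched PED6 carried via bile; overnight exposure to compound and PED6 before scoring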
# run-conditions: Zebrafish larvae PED6 lipid processing, fluorescence scoring; screened at 20 µM (by protocol)
The source made the active and inactive calls.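 Rule for the calls: active = a full or partial loss of lipid-probe fluorescence in the fish gall bladder, intestine or both, judged by eye; inactive = no fluorescence loss, or compound toxic to the fish.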
property-measured: outcome

Here's what some known entries look like.
CN(C)c1ccc(NC(=O)Nc2cccc(Cl)c2)cc1 : inactive
CCN(CC)S(=O)(=O)c1ccc(NC(=O)c2cccc3c2C(=O)N(CCOC)C3)cc1 : inactive
CCOc1ccc(CCNc2nc3c(c(=O)n(C)c(=O)n3C)n2CC)cc1OCC : inactive
Cc1ccc(CN2C(=O)CCC2C(=O)NCCCN2CCCC(C)C2)cc1 (stereo not given) : inactive

Attention now shifts to the item below.
# lookup: outcome of CN(Cc1ccc(-n2cccn2)cc1)C(=O)c1cnn2c1NC(c1ccco1)CC2C(F)(F)F (stereo not given)
inactive

----------
cell count overview
# assay-remarks: inhibitors of TNFa-induced NFkB p65 translocation, primary screen, imaging, HUVEC, MLSMR starter and 10KST1 sets (AID 438);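 also: compound added about 3h40 before a 20 min TNFalpha stimulation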
# run-conditions: HUVEC TNFa-induced p65 nuclear translocation; measured here: nuclei count (cytotoxicity indicator), at 2.08 µM
Format: numeric value only, no unit, no commentary.

Reference set (10 entries):
CS(=O)(=O)Nc1ccccc1C(=O)O : 363
O=P(O)(O)C(O)C(F)(F)C(F)(F)C(F)(F)C(F)F (stereo unspecified) : 436
O=C(NCc1ccco1)C1CCN(c2ccc(N3CCOCC3)nn2)CC1 : 633
CC(O)c1nc2ccccc2n1C1CCCCC1 (stereo unspecified) : 631
COc1ccc(CNC(=O)C(c2ccco2)N(Cc2cccs2)C(=O)Cc2cccs2)cc1 (stereo unspecified) : 658
COc1ccc(-n2nnc3c(=O)n(C/C=C/c4ccccc4)cnc32)cc1 : 585
CCOc1cc(N2CCOCC2)c(OCC)cc1NC(=O)COC(=O)CCc1c[nH]c2ccccc12 : 300
CC(NC(=O)NC12CC3CC(CC(C3)C1)C2)C1CCCO1 (stereo unspecified) : 356
Cc1ccc(-n2c(SCC3CCCCO3)nnc2-c2ccco2)cc1 (stereo unspecified) : 573
COc1ccccc1N1CCN(C/C(O)=C(\C#N)c2nc(-c3ccccc3)cs2)CC1 : 475

May I ask what cell count has been recorded for O=C(Nc1ccccc1C(=O)O)c1cccc(NC(=O)c2ccc(Br)o2)c1 ?
489
